From: BigSolDB 2.1

# TEST PARAMETERS: in water, 283.4 K
READOUT LABEL: solubility (mole fraction)

MOLECULE SMILES	DATA VALUE
CO/N=C(/C(=O)N[C@@H]1C(=O)N2C(C(=O)O)=C(COC(N)=O)CS[C@H]12)c1ccco1	4e-05

====

# TEST PARAMETERS: in ethanol, 293.3 K

MOLECULE SMILES	solubility (mole fraction)
CO/N=C(/C(=O)N[C@@H]1C(=O)N2C(C(=O)O)=C(COC(N)=O)CS[C@H]12)c1ccco1	0.00032

====

# TEST PARAMETERS: in acetone, 283.4 K
READOUT LABEL: solubility (mole fraction)

MOLECULE SMILES	READOUT LABEL	DATA VALUE
CO/N=C(/C(=O)N[C@@H]1C(=O)N2C(C(=O)O)=C(COC(N)=O)CS[C@H]12)c1ccco1	solubility (mole fraction)	0.0036

====

# TEST PARAMETERS: in water, 303.5 K
READOUT LABEL: solubility (mole fraction)

MOLECULE SMILES	DATA VALUE
CO/N=C(/C(=O)N[C@@H]1C(=O)N2C(C(=O)O)=C(COC(N)=O)CS[C@H]12)c1ccco1	0.00012

====

# TEST PARAMETERS: in water, 278.5 K
READOUT LABEL: solubility (mole fraction)

MOLECULE SMILES	DATA VALUE
CO/N=C(/C(=O)N[C@@H]1C(=O)N2C(C(=O)O)=C(COC(N)=O)CS[C@H]12)c1ccco1	3e-05

====

# TEST PARAMETERS: in water, 298.3 K

MOLECULE SMILES	solubility (mole fraction)
CO/N=C(/C(=O)N[C@@H]1C(=O)N2C(C(=O)O)=C(COC(N)=O)CS[C@H]12)c1ccco1	7e-05

====

# TEST PARAMETERS: in acetone, 308.3 K
READOUT LABEL: solubility (mole fraction)

MOLECULE SMILES	DATA VALUE
CO/N=C(/C(=O)N[C@@H]1C(=O)N2C(C(=O)O)=C(COC(N)=O)CS[C@H]12)c1ccco1	0.00327

====

# TEST PARAMETERS: in ethanol, 283.4 K
READOUT LABEL: solubility (mole fraction)

MOLECULE SMILES	DATA VALUE
CO/N=C(/C(=O)N[C@@H]1C(=O)N2C(C(=O)O)=C(COC(N)=O)CS[C@H]12)c1ccco1	0.00022

====

# TEST PARAMETERS: in isopropanol, 313.4 K

MOLECULE SMILES	solubility (mole fraction)
CO/N=C(/C(=O)N[C@@H]1C(=O)N2C(C(=O)O)=C(COC(N)=O)CS[C@H]12)c1ccco1	0.00032

====

# TEST PARAMETERS: in acetone, 298.3 K

MOLECULE SMILES	solubility (mole fraction)
CO/N=C(/C(=O)N[C@@H]1C(=O)N2C(C(=O)O)=C(COC(N)=O)CS[C@H]12)c1ccco1	0.00337

====

# TEST PARAMETERS: in acetone, 288.3 K

MOLECULE SMILES	solubility (mole fraction)
CO/N=C(/C(=O)N[C@@H]1C(=O)N2C(C(=O)O)=C(COC(N)=O)CS[C@H]12)c1ccco1	0.00355

====

# TEST PARAMETERS: in acetone, 293.3 K

MOLECULE SMILES	solubility (mole fraction)
CO/N=C(/C(=O)N[C@@H]1C(=O)N2C(C(=O)O)=C(COC(N)=O)CS[C@H]12)c1ccco1	0.00342

====

# TEST PARAMETERS: in ethanol, 278.5 K

MOLECULE SMILES	solubility (mole fraction)
CO/N=C(/C(=O)N[C@@H]1C(=O)N2C(C(=O)O)=C(COC(N)=O)CS[C@H]12)c1ccco1	0.00019

====

# TEST PARAMETERS: in acetone, 278.5 K

MOLECULE SMILES	solubility (mole fraction)
CO/N=C(/C(=O)N[C@@H]1C(=O)N2C(C(=O)O)=C(COC(N)=O)CS[C@H]12)c1ccco1	0.00362

====

# TEST PARAMETERS: in isopropanol, 278.5 K
READOUT LABEL: solubility (mole fraction)

MOLECULE SMILES	READOUT LABEL	DATA VALUE
CO/N=C(/C(=O)N[C@@H]1C(=O)N2C(C(=O)O)=C(COC(N)=O)CS[C@H]12)c1ccco1	solubility (mole fraction)	6e-05

====

# TEST PARAMETERS: in ethanol, 288.3 K

MOLECULE SMILES	solubility (mole fraction)
CO/N=C(/C(=O)N[C@@H]1C(=O)N2C(C(=O)O)=C(COC(N)=O)CS[C@H]12)c1ccco1	0.00028

====

# TEST PARAMETERS: in water, 313.4 K

MOLECULE SMILES	solubility (mole fraction)
CO/N=C(/C(=O)N[C@@H]1C(=O)N2C(C(=O)O)=C(COC(N)=O)CS[C@H]12)c1ccco1	0.00026

====

# TEST PARAMETERS: in acetone, 313.4 K

MOLECULE SMILES	solubility (mole fraction)
CO/N=C(/C(=O)N[C@@H]1C(=O)N2C(C(=O)O)=C(COC(N)=O)CS[C@H]12)c1ccco1	0.00324

====

# TEST PARAMETERS: in water, 308.3 K
READOUT LABEL: solubility (mole fraction)

MOLECULE SMILES	READOUT LABEL	DATA VALUE
CO/N=C(/C(=O)N[C@@H]1C(=O)N2C(C(=O)O)=C(COC(N)=O)CS[C@H]12)c1ccco1	solubility (mole fraction)	0.00022

====

# TEST PARAMETERS: in isopropanol, 298.3 K

MOLECULE SMILES	solubility (mole fraction)
CO/N=C(/C(=O)N[C@@H]1C(=O)N2C(C(=O)O)=C(COC(N)=O)CS[C@H]12)c1ccco1	0.00012

====

# TEST PARAMETERS: in ethanol, 308.3 K
READOUT LABEL: solubility (mole fraction)

MOLECULE SMILES	READOUT LABEL	DATA VALUE
CO/N=C(/C(=O)N[C@@H]1C(=O)N2C(C(=O)O)=C(COC(N)=O)CS[C@H]12)c1ccco1	solubility (mole fraction)	0.00056

====

# TEST PARAMETERS: in ethanol, 298.3 K

MOLECULE SMILES	solubility (mole fraction)
CO/N=C(/C(=O)N[C@@H]1C(=O)N2C(C(=O)O)=C(COC(N)=O)CS[C@H]12)c1ccco1	0.00037
